- measuredOn: Human immunodeficiency virus type 1 integrase (Human immunodeficiency virus 1)
- experimentNotes: Inhibitory activity against DNA strand transfer by HIV integrase
observable: IC50 (µM)
Dear colleague, please return just the value in µM, with no unit written.

Query: Endpoint output: IC50 of Cc1cc(S(=O)(=O)Nc2nnc(Nc3ccccc3)[nH]2)c(S)cc1Cl . Value?
Reply: 12.6

Query: Which IC50 is listed for Cc1cc2nc3nc(N)nc(NS(=O)(=O)c4cc(C)c(Cl)cc4S)n3c2cc1C ?
Reply: 4.27

Query: May I ask what IC50 has been recorded for COc1ccc(Nc2n[nH]c(NS(=O)(=O)c3cc(C)c(Cl)cc3S)n2)cc1 ?
Reply: 14.1

Query: Name the recorded IC50 for O=S(=O)(Nc1ccccn1)c1ccc(/N=N/c2cnc(O)c(O)c2)cc1 .
Reply: 58.9

Query: Fill blank: measured IC50 of the compound Cc1ccnc(NS(=O)(=O)c2ccc(/N=N/c3cc4ccccc4c(C(=O)O)c3O)cc2)n1 is ____.
Reply: 32.4

Query: Entry Cc1ccc(Nc2n[nH]c(NS(=O)(=O)c3cc(C)c(Cl)cc3S)n2)cc1 : reported IC50 = ?
Reply: 24

Query: I would be grateful if you could share the reported IC50 for Cc1cc(S(=O)(=O)Nc2nc(N)nc(N(C)C)n2)c(S)cc1Cl .
Reply: 41.7

Query: Could you tell me which IC50 is on file for Cc1cc2c(cc1Cl)SC(C1C(=O)NC(=S)NC1=O)NS2(=O)=O (stereo not given) ?
Reply: 50.1

Query: Which IC50 is listed for Cc1cc(S(=O)(=O)Nc2n[nH]c(-c3ccc(Cl)cn3)n2)c(S)cc1Cl ?
Reply: 10.2

Query: Field request: IC50 | item: Cc1cc(S(=O)(=O)Nc2nnc3c4scc(C)c4ncn23)c(S)cc1Cl
Reply: 7.41

###

- measuredOn: UniProt:Q7ZJM1
- experimentNotes: Inhibitory activity against 3' processing by HIV integrase
observable: pIC50
Conceptually, pIC50 converts a concentration in mol/L into minus its log10.

Query: Param readout = pIC50; param system = UniProt:Q7ZJM1; param query = Cc1cc(S(=O)(=O)Nc2nnc3ccc4ccccc4n23)c(S)cc1Cl ; response: value
Reply: 4.89

Query: Request body: readout pIC50, system UniProt:Q7ZJM1, query CC1=NNC(=O)C1/N=N/c1ccc(S(=O)(=O)Nc2nccs2)cc1 (stereo not given) . Return the value.
Reply: 4.15

Query: Write down the reported pIC50 of Cc1cc(S(=O)(=O)NC2=NCCCN2)c(S)cc1Cl , test system: UniProt:Q7ZJM1.
Reply: 3.83

Query: Query for UniProt:Q7ZJM1: what pIC50 does the record show for Cc1cc(S(=O)(=O)Nc2nc3ccccc3[nH]2)c(S)cc1Cl ?
Reply: 4.41

Query: Checklist item: pIC50 tested on UniProt:Q7ZJM1, entry Cc1cc(S(=O)(=O)Nc2nnc3c4scc(C)c4ncn23)c(S)cc1Cl , value?
Reply: 5.03

Query: Recall the recorded pIC50 for CCN(c1ccccc1)c1nc(N)nc(NS(=O)(=O)c2cc(C)c(Cl)cc2S)n1 with UniProt:Q7ZJM1 and state it.
Reply: 4.76

Query: Query the reported pIC50 for UniProt:Q7ZJM1; item: CCOC(=O)C(C#N)C1NS(=O)(=O)c2cc(C)c(Cl)cc2S1 (stereo not given)
Reply: 3.48

Query: Request - read-out pIC50 | tested on UniProt:Q7ZJM1 | compound CC1=NN(c2ccccc2)C(=O)C1/N=N/c1ccc(S(=O)(=O)Nc2scc(C)c2C)cc1 (stereo not given)
Reply: 3.89

Query: # get_value(readout= pIC50, system= UniProt:Q7ZJM1) for Cc1cc2c(cc1Cl)SC(C(C#N)C(=O)c1ccccc1)NS2(=O)=O (stereo not given)
Reply: 3.70

Query: Give UniProt:Q7ZJM1 pIC50 for Cc1cc(S(=O)(=O)NC(=NN)Nc2ccc(Cl)cc2)c(S)cc1Cl
Reply: 5.45

###

- measuredOn: Human immunodeficiency virus type 1 integrase (Human immunodeficiency virus 1, UniProt Q7ZJM1)
- Sequence (Q7ZJM1 whole entry): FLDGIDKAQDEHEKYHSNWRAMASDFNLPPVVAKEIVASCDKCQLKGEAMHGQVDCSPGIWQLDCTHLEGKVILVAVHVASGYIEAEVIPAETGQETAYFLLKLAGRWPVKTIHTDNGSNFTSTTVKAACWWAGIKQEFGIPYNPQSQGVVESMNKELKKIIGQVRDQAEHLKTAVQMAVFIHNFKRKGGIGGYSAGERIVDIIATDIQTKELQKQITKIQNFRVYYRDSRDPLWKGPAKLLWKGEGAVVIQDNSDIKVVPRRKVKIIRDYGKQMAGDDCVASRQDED
- experimentNotes: Inhibitory activity against 3' processing by HIV integrase
observable: pIC50
Recall that pIC50 is obtained by taking minus log10 of the concentration measured in molar.

Query: Report pIC50 for O=S(=O)(Nc1nnc2c3ccccc3ccn12)c1ccc(F)cc1S please.
Reply: 4.29

Query: Endpoint output: pIC50 of O=S(=O)(Nc1ccccn1)c1ccc(/N=N/c2cnc(O)c(O)c2)cc1 . Value?
Reply: 4.22

Query: Name the recorded pIC50 for Cc1cc(S(=O)(=O)Nc2nc(Nc3ccccc3)nn2C)c(S)cc1Cl .
Reply: 4.56

Query: So what does the record say about pIC50 for Cc1ccnc(NS(=O)(=O)c2ccc(/N=N/c3cc4ccccc4c(C(=O)O)c3O)cc2)n1 ?
Reply: 4.71

Query: What pIC50 value was documented for this molecule, O=C(Nc1ccc(Cl)cc1)c1cc(S(=O)(=O)Nc2nncn2-c2ccc(F)cc2)c(S)cc1Cl ?
Reply: 4.43

Query: Consider the molecule shown here: CC1N=NC(c2ccc(S(=O)(=O)NC3SC(=S)NC3=O)cc2)S1 (stereo not given) What is its recorded pIC50?
Reply: 4.62

Query: pIC50 lookup needed for COc1cc(Nc2nnc(NS(=O)(=O)c3cc(C)c(Cl)cc3S)[nH]2)cc(OC)c1OC , thanks.
Reply: 4.81

Query: Form field: reported pIC50 of Cc1ccc(NC(=O)c2cc(S(=O)(=O)Nc3nncn3CC(C)C)c(S)cc2Cl)cc1
Reply: 4.12

Query: Returns the measured pIC50 for the input molecule. Input: Cc1cc2c(cc1Cl)SC(C1C(=O)NC(=S)NC1=O)NS2(=O)=O (stereo not given)
Reply: 4.22

Query: Return reported pIC50; argument: O=C(O)c1cc2ccccc2c(/N=N/c2ccc(S(=O)(=O)Nc3nccs3)cc2)c1O
Reply: 4.67

###

- measuredOn: Human immunodeficiency virus type 1 integrase (Human immunodeficiency virus 1, UniProt Q7ZJM1)
- experimentNotes: Inhibitory activity against DNA strand transfer by HIV integrase
observable: IC50
Don't forget the unit after the number, please.

Query: I have this compound here, CC1=NNC(=O)C1/N=N/c1ccc(S(=O)(=O)Nc2nccs2)cc1 (stereo not given) , and I need its recorded IC50.
Reply: 61.7 µM

Query: Reported IC50 for CC(=O)Oc1cc(S(=O)(=O)Nc2nnc(Nc3ccc(C)cc3)[nH]2)c(S)cc1Cl : what is it?
Reply: 10 µM

Query: // lookup IC50 for CC(C)Cn1cnnc1NS(=O)(=O)c1cc(C(=O)Nc2ccc(Cl)cc2)c(Cl)cc1S
Reply: 39.8 µM

Query: Which IC50 is reported for this compound? COc1cc(Nc2nnc(NS(=O)(=O)c3cc(C)c(Cl)cc3S)[nH]2)cc(OC)c1OC
Reply: 16.6 µM

Query: # lookup: IC50 of CCN(c1ccccc1)c1nc(N)nc(NS(=O)(=O)c2cc(C)c(Cl)cc2S)n1
Reply: 24.5 µM

Query: For NS(=O)(=O)c1ccc(/N=N/C2Sc3nc4ccccc4n3C2=O)cc1 (stereo not given) , what is its reported IC50?
Reply: 126 µM

Query: Can you look up the measured IC50 of Cc1cc(S(=O)(=O)Nc2nnc3ccc4ccccc4n23)c(S)cc1Cl for me?
Reply: 7.41 µM

Query: Returns the measured IC50 for the input compound. Input: COc1cccc(Nc2n[nH]c(NS(=O)(=O)c3cc(C)c(Cl)cc3S)n2)c1
Reply: 20.9 µM

Query: Name the recorded IC50 for Cc1ccc(Nc2nc(NS(=O)(=O)c3cc(C)c(Cl)cc3S)n(C)n2)cc1 .
Reply: 19.1 µM

Query: Request the reported IC50 associated with O=C(O)c1cc2ccccc2c(/N=N/c2ccc(S(=O)(=O)Nc3nccs3)cc2)c1O
Reply: 42.7 µM

Query: Request the reported IC50 associated with CC(=O)C(/N=N/c1ccc(S(=O)(=O)Nc2ccccn2)cc1)C(=O)Nc1ccccc1C (stereo not given)
Reply: 72.4 µM

Query: Form field: reported IC50 of Cc1cc(S(=O)(=O)Nc2nnc3ccccn23)c(S)cc1Cl
Reply: 110 µM

Query: I have this compound here, Cc1cc(S(=O)(=O)Nc2nc3ccccc3nc2-c2cccc([N+](=O)[O-])c2)c(S)cc1Cl , and I need its recorded IC50.
Reply: 7.94 µM

Query: What does the record list as IC50 for O=C(Nc1ccc(Cl)cc1)c1cc(S(=O)(=O)Nc2nncn2-c2ccc(F)cc2)c(S)cc1Cl ?
Reply: 37.2 µM

Query: Look at this compound and give its reported IC50. Cc1cc(S(=O)(=O)Nc2nc(N)nc3nc4ccccc4n23)c(S)cc1Cl
Reply: 7.76 µM

Query: What does the data say about its IC50? Entry: O=C(Nc1ccccc1)c1cc(S(=O)(=O)Nc2nncn2-c2ccc(F)cc2)c(S)cc1Cl
Reply: 50.1 µM

Query: For the compound Cc1cc(S(=O)(=O)NC(=NN)Nc2ccc(Cl)cc2)c(S)cc1Cl , what IC50 is on record?
Reply: 3.55 µM

Query: What does the data say about its IC50? Entry: CCC(C)n1cnnc1NS(=O)(=O)c1cc(C(=O)Nc2ccc(C)cc2)c(Cl)cc1S (stereo not given)
Reply: 112 µM

Query: Look up IC50: O=S(=O)(Nc1nnc2c3ccccc3cnn12)c1ccc(Cl)cc1S
Reply: 38.9 µM

Query: Value lookup for IC50; key = Cc1ccc(NC(=O)c2cc(S(=O)(=O)Nc3nncn3Cc3ccccc3)c(S)cc2Cl)cc1
Reply: 7.94 µM
